Assignment: determine reported pIC50 for the given molecules.
# SYSTEM_TESTED: recombinant human AKR1C3 (aldo-keto reductase family 1 member C3) (Homo sapiens, UniProt P42330)
# Construct: GST (cleaved yes); made in house; host or cells: E. coli
# Sequence (P42330 whole entry): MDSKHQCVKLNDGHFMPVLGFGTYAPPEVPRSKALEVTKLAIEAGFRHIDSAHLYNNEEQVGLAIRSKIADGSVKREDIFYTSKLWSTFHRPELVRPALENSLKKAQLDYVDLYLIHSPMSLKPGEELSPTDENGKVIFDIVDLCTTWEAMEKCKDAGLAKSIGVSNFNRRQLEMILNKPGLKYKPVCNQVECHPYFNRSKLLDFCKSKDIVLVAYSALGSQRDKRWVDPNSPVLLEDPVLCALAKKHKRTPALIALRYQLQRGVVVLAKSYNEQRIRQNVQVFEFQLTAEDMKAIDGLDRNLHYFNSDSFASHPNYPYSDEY
# ASSAY_EXPLANATION: AKR1C3 enzyme inhibition assay (fluorescence; NADPH-dependent reduction of coumberone to coumberol)
# Type: biochemical
# TEST_CONDITIONS: 10 µM NADPH, 0.3 µM coumberone, 15 min preincubation, 90 min at 22°C, pH 7; 4-parameter fit; for some compounds two experimental determinations are given; read-out: AKR1C3 enzyme inhibition IC50
Scale for pIC50: -log10 of concentration given in mol/L; no unit attached.

Asked: For CN(CCC(=O)O)C(=O)c1ccc2c(c1)CC[C@H]1[C@@H]3[C@H](O)C[C@H](c4cncc(F)c4)[C@@]3(C)CC[C@H]21 [Example 11] , what is its reported pIC50?
Given back: 7.65

Asked: For CN(CCC(=O)O)C(=O)c1ccc2c(c1)CC[C@H]1[C@@H]3[C@@H](O)C[C@H](c4cncc(F)c4)[C@@]3(C)CC[C@H]21 [Example 12] , what is its reported pIC50?
Given back: 6.73
